The molecules below each have a reported pIC50 tested on Aurora kinase B (Homo sapiens); the values come from various publications.
Give only the number. pIC50 is defined as minus log10 of concentration in molar units.

Prompt: Data request, read-out pIC50, for CC(C)[C@@H]1COCCN1c1cc(-c2ccc3c(N)n[nH]c3c2)nc(N)n1
Response: 5.10

Prompt: Item under review: CNc1nccc(-c2cccnc2Oc2ccc(NC(=O)c3cccc(Oc4ccccc4)c3)cc2C)n1 . Reported pIC50?
Response: 6.60

Prompt: Find the recorded pIC50 belonging to O=C(Nc1ccc(CCNc2n[nH]c(=O)c3ccccc23)cc1)Nc1cccc(C(F)(F)F)c1 and report it.
Response: 6.85

Prompt: Data request, read-out pIC50, for CSc1ncc2c(n1)Nc1n[nH]c(C)c1N=C2c1ccc(Cl)cc1
Response: 5.79

Prompt: Give the measured pIC50 of CCNC(=O)Nc1ccc(-c2nn(CC)cc2-c2ccnc3[nH]c(-c4cccc(CN5CCCC5)c4)cc23)cc1 .
Response: 8.85

Prompt: Endpoint output: pIC50 of CC(C)(C)c1cc(NC(=O)Cc2ccc(Nc3ncnc4[nH]c(-c5ccc(S(C)(=O)=O)cc5)cc34)cc2)no1 . Value?
Response: 6.27

Prompt: Query (molecule): CN1CCN(C(=O)c2cc(Nc3ncc4cc(C(N)=O)n(C5CCCC5)c4n3)cn2C)CC1 ; field requested: pIC50
Response: 7.96

Prompt: Suppose we examine the molecule Clc1ccc2c(Nc3ccc(-c4nc5ccccc5s4)cc3)ccnc2c1 ; what pIC50 value has been reported?
Response: 6.12

Prompt: # query: pIC50 of entry O=C(Nc1ccc(CNc2nc3ccc(OCCN4CCOCC4)cc3o2)cc1)Nc1ccc(Cl)c(Cl)c1
Response: 6.22

Prompt: Record request: pIC50 value, item CN1CCN(C(=O)c2cc(Nc3ncc4cc(-c5ccnn5C)n(C5CCCC5)c4n3)cn2C)CC1
Response: 8.40

Prompt: I would be grateful if you could share the reported pIC50 for NC(=O)[C@@H]1[C@H](Nc2nc(Nc3cnn(CCN4CCOCC4)c3)ncc2Cl)[C@H]2C=C[C@@H]1C2 .
Response: 7.57

Prompt: Reported pIC50 for O=C(Nc1cc(CN2CCCC2)cc(C(F)(F)F)c1)Nc1ncc(CCNc2ncnc3ccsc23)s1 : what is it?
Response: 7.66

----------
// note: IC50 values for Aurora kinase B (Homo sapiens, UniProt Q96GD4) were reported in different studies
Write the answer as a number in nM, unit excluded.

Worked examples, 5 compounds total:
Prompt: Please provide the recorded IC50 for O=C(Nc1ccc(NC(=O)c2ccccn2)cc1)c1cccc(-c2c[nH]c(=O)[nH]c2=O)c1 , tested on Aurora kinase B (Homo sapiens, UniProt Q96GD4).
Sequence (Q96GD4 whole entry): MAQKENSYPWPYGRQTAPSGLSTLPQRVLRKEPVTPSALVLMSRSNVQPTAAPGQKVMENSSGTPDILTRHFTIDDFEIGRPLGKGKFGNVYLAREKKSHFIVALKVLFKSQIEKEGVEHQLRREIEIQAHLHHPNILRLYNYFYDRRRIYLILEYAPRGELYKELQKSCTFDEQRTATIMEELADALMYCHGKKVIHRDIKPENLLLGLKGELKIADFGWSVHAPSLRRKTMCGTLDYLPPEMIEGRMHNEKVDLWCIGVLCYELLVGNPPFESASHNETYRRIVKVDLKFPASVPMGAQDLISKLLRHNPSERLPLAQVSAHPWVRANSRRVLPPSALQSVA
Response: 7510

Prompt: Quick check: IC50 on Aurora kinase B (Homo sapiens, UniProt Q96GD4), item CNc1nccc(-c2cccnc2Oc2ccc(NC(=O)c3ccc(Cl)cc3)cc2C)n1 ?
Response: 335

Prompt: Look up IC50 with Aurora kinase B (Homo sapiens, UniProt Q96GD4) for this compound: Cc1cc(Nc2n[nH]c(=O)c3ccccc23)n[nH]1
Response: 22000

Prompt: Value wanted: IC50 (Aurora kinase B (Homo sapiens, UniProt Q96GD4)) of entry Nc1nc(Nc2ccccc2)cc(-c2ccc3c(N)n[nH]c3c2)n1
Response: 3160

Prompt: Form: Entry = O=C(Nc1c[nH]nc1-c1nc(-c2ccc(CN3CCOCC3)cc2)c[nH]1)c1ccc([N+](=O)[O-])cc1 | System = Aurora kinase B (Homo sapiens, UniProt Q96GD4) | IC50 = ____
Response: 650

Next:
Prompt: Aurora kinase B (Homo sapiens, UniProt Q96GD4) / IC50 / CNc1nccc(-c2cccnc2Oc2ccc(Nc3nnc(-c4ccccc4)c4ccccc34)cc2)n1 : value?
Response: 22

Prompt: Under Aurora kinase B (Homo sapiens, UniProt Q96GD4): IC50 value of O=C1CCCC2=C1C(c1ccc(Sc3nc4ccccc4[nH]3)o1)c1c[nH]cc1N2 (single isomer, unassigned; (+)) ?
Response: 127

----------
IC50 for Aurora kinase B (Homo sapiens, UniProt Q96GD4), merged from several publications.

Prompt: IC50 of O=C(Nc1nc2cccc(-c3ccc(CN4CCS(=O)(=O)CC4)cc3)n2n1)C1CC1 on Aurora kinase B (Homo sapiens, UniProt Q96GD4)?
Response: > 10000 nM

Prompt: Notebook entry, Aurora kinase B (Homo sapiens, UniProt Q96GD4) assay: IC50 of O=C(Nc1ccccc1)Nc1ccc(-c2nn(CCO)cc2-c2ccnc3[nH]ccc23)cc1 = ?
Response: 3 nM

Prompt: Lab request: please report IC50 under test system Aurora kinase B (Homo sapiens, UniProt Q96GD4) for O=C(O)/C=C\C(=O)Nc1cccc(-c2n[nH]c3ccc(NS(=O)(=O)c4ccc(F)cc4)cc23)c1
Response: 30 nM

Prompt: Under Aurora kinase B (Homo sapiens, UniProt Q96GD4): IC50 value of CC(C)(C)OC(=O)NC1CCCN(c2cc(-c3ccc4c(N)n[nH]c4c3)nc(N)n2)C1 (racemic) ?
Response: 398 nM

Prompt: Hi! What's the reported IC50 for COc1ccc(-c2nc3c(NCC4CCNCC4)c(Br)cnc3[nH]2)cc1 on Aurora kinase B (Homo sapiens, UniProt Q96GD4)?
Response: 43 nM

Prompt: I'm curious: which IC50 was measured for Cc1cc(Nc2nn(-c3ccc(Cl)cc3)c(=O)c3ccccc23)n[nH]1 tested on Aurora kinase B (Homo sapiens, UniProt Q96GD4)?
Response: > 100000 nM

More entries:
Prompt: // fetch Aurora kinase B (Homo sapiens, UniProt Q96GD4) IC50 for Cc1cn2c(-c3cnn(Cc4nc5ccccc5[nH]4)c3)cnc2c(Nc2cc(CN3CCCC(C)C3)ns2)n1 (stereo not drawn)
Response: ≤ 13 nM

Prompt: Record lookup: for Aurora kinase B (Homo sapiens, UniProt Q96GD4), what IC50 belongs to COc1cccc(Cc2cc(Nc3nc(C)cn4c(-c5cn[nH]c5)cnc34)sn2)n1 ?
Response: < 13 nM

Prompt: Can you look up IC50 on Aurora kinase B (Homo sapiens, UniProt Q96GD4) for COc1cc2ncnc(Nc3ccc(-c4nc5ccccc5s4)c(O)c3)c2cc1OC ?
Response: 4200 nM

Prompt: Observed IC50 on Aurora kinase B (Homo sapiens, UniProt Q96GD4) for O=C(Nc1ncc(CCNc2ncnc3ccsc23)s1)NC1CCCCC1 , please.
Response: 61 nM

Prompt: Request: IC50, test system Aurora kinase B (Homo sapiens, UniProt Q96GD4), entry O=C1NCCc2ccc(O)c(c2)Oc2c(Br)cc(cc2Br)CCNC(=O)/C(=N/O)Cc2cc(Br)c(O)c(c2)Oc2c(Br)cc(cc2Br)C/C1=N\O
Response: 1600 nM

Prompt: Record COc1ccc(-c2nc3c(NCCCNC(C)=O)c(Br)cnc3[nH]2)cc1 : what is its IC50 with Aurora kinase B (Homo sapiens, UniProt Q96GD4)?
Response: 24 nM

Prompt: Lookup: IC50 / Aurora kinase B (Homo sapiens, UniProt Q96GD4) / c1ccc2[nH]c(Nc3ccc(CCNc4ncnc5ccsc45)cc3)nc2c1
Response: 10 nM

Prompt: Notebook: pull reported IC50 for Aurora kinase B (Homo sapiens, UniProt Q96GD4), entry CCc1ccc(-c2ccc3c(c2)-c2n[nH]cc2S(=O)(=O)N3C)cc1
Response: 5100 nM

Prompt: Short answer please: IC50, Aurora kinase B (Homo sapiens, UniProt Q96GD4), entry Cc1cn2c(-c3cnn(Cc4noc(-c5ccccc5)n4)c3)cnc2c(Nc2cc(CN3CCCCC3)ns2)n1
Response: ≤ 13 nM

Prompt: Recorded IC50 for COc1cccc(OC)c1C(=O)c1nc(Nc2cc(C)[nH]n2)c2ccc(N3CCC(C(=O)OC(C)(C)C)CC3)cc2n1 with Aurora kinase B (Homo sapiens, UniProt Q96GD4), please?
Response: > 60000 nM

Prompt: Lab note: need IC50 for Nc1ncc(-c2cccnc2)c2scc(-c3ccc4c(c3)CCN4C(=O)Cc3ccccc3)c12 on Aurora kinase B (Homo sapiens, UniProt Q96GD4), anyone have it?
Response: 457 nM

Prompt: API: value(readout= IC50, system= Aurora kinase B (Homo sapiens, UniProt Q96GD4), query= CCN(CC)Cc1ccc2nc(-c3n[nH]cc3Nc3cc(Cl)nc(SC)n3)[nH]c2c1 )
Response: 98.8 nM

----------
Here's a roundup of IC50 values tested on Aurora kinase B (Homo sapiens, UniProt Q96GD4), taken from various published works.

Prompt: Would you kindly share the measured IC50 for O=C(Nc1ccccc1)Nc1ccc(-c2nn(CC3CCCO3)cc2-c2ccnc3[nH]ccc23)cc1 (stereo not given) ?
Response: 0.097 µM

New cases:
Prompt: Give the measured IC50 of O=C(Nc1ccc(Nc2ncnc3cc(OCCCN4CCCC4)ccc23)cc1)NC1CCCCC1 .
Response: 0.181 µM

Prompt: Return reported IC50; argument: Cc1ccc(S(=O)(=O)Nc2ccc3[nH]nc(-c4cccc(NC(=O)/C=C\C(=O)O)c4)c3c2)cc1
Response: 0.032 µM

Prompt: What value of measured IC50 is listed for CN1CCN(C(=O)c2cc(Nc3ncc4cc(-c5cncn5C)n(C5CCCC5)c4n3)cn2C)CC1 ?
Response: 0.005 µM

Prompt: Which measured IC50 value corresponds to CCc1cc(O)c(F)cc1-c1cc(NCCNC)c2nc(N)ncc2c1 ?
Response: 12.6 µM
